- System: Ipomea hederaceae
- Test description: Example B2 herbicidal action, post-emergence, pots in glasshouse, damage score 0-10
- Assay type: in vivo
- Conditions: application post-emergence, rate 1000 g/ha, evaluated after 13 days
Please note: IPOHE damage score (10=total damage to plant; 0=no damage to plant) exactly at 8 is false (0). Only values below 8 get true (1).

{"columns": ["Compound", "Label class"],
 "data": [
  ["O=S1(=O)C(c2ccccc2I)=C(O)c2nccnc2N1CC(F)F [Compound D44]", "false (0)"],
  ["CCN1c2nccnc2C(OC(=O)C(C)(C)C)=C(c2cccc(C(F)(F)F)c2Cl)S1(=O)=O [Compound C76]", "true (1)"],
  ["O=S1(=O)C(c2cc(C(F)(F)F)ccc2Br)=C(O)c2nccnc2N1CC(F)F [Compound D30]", "false (0)"],
  ["CC(C)C(=O)OC1=C(c2c(Cl)ccc(Cl)c2C(F)(F)F)S(=O)(=O)N(CC(F)F)c2nccnc21 [Compound C53]", "true (1)"],
  ["O=S1(=O)C(c2cc(Cl)ccc2C(F)(F)F)=C(O)c2nccnc2N1CC(F)F [Compound D53]", "true (1)"],
  ["O=S1(=O)C(c2ccc(Cl)cc2Cl)=C(OCC(F)(F)F)c2nccnc2N1CC(F)(F)F [Compound C106]", "true (1)"],
  ["CCSC(=O)OC1=C(c2c(Cl)ccc(Cl)c2Cl)S(=O)(=O)N(CC(F)F)c2nccnc21 [Compound C37]", "false (0)"]
]}

====

- System: Ipomea hederaceae
- Test description: Example B2 herbicidal action, post-emergence, pots in glasshouse, damage score 0-10
- Assay type: in vivo
- Conditions: application post-emergence, rate 1000 g/ha, evaluated after 13 days
Measured IPOHE damage score (10=total damage to plant; 0=no damage to plant) values are reported for all entries that follow.
Measure: IPOHE damage score (10=total damage to plant; 0=no damage to plant)

{"columns": ["Structure", "Observed"],
 "data": [
  ["CCSC(=O)OC1=C(c2cc(Cl)ccc2C(F)(F)F)S(=O)(=O)N(CC)c2nccnc21", 9],
  ["CC(C)C(=O)OC1=C(c2ccc(C(F)(F)F)cc2C(F)(F)F)S(=O)(=O)N(CC(F)F)c2nccnc21", 8],
  ["CC(C)C(=O)OC1=C(c2ccccc2I)S(=O)(=O)N(CC(F)F)c2nccnc21", 9],
  ["CC(C)C(=O)OC1=C(c2c(F)ccc(Cl)c2Cl)S(=O)(=O)N(CC(F)F)c2nccnc21", 10],
  ["CCN1c2nccnc2C(OC(=O)C(C)C)=C(c2c(Cl)cccc2C(F)(F)F)S1(=O)=O", 9],
  ["COc1ccc(Cl)c(C2=C(OC(=O)C(C)C)c3nccnc3N(CC(F)F)S2(=O)=O)c1F", 8],
  ["CCN1c2nccnc2C(O)=C(c2c(F)ccc(Br)c2Cl)S1(=O)=O", 9],
  ["COc1ccc(F)c(C2=C(OC(=O)C(C)(C)C)c3nccnc3N(CC(F)F)S2(=O)=O)c1Cl", 9]
]}

====

- System: Ipomea hederaceae
- Test description: Example B2 herbicidal action, post-emergence, pots in glasshouse, damage score 0-10
- Assay type: in vivo
- Conditions: application post-emergence, rate 1000 g/ha, evaluated after 13 days
- Procedure: Seeds of a variety of test species were sown in standard soil in pots. […] After 13 days, the test was evaluated (10=total damage to plant; 0=no damage to plant).
Measured IPOHE damage score (10=total damage to plant; 0=no damage to plant) values are reported for all entries that follow.
Measure: IPOHE damage score (10=total damage to plant; 0=no damage to plant)

{"columns": ["Structure", "Assay target", "Observed"],
 "data": [
  ["CCN1c2nccnc2C(O)=C(c2c(C(F)(F)F)cccc2C(F)(F)F)S1(=O)=O", "Ipomea hederaceae", 8],
  ["CC(C)(C)C(=O)OC1=C(c2c(Cl)cccc2C(F)(F)F)S(=O)(=O)N(CC(F)F)c2nccnc21", "Ipomea hederaceae", 8],
  ["CCSC(=O)OC1=C(c2c(Cl)ccc(Cl)c2C(F)(F)F)S(=O)(=O)N(CC(F)F)c2nccnc21", "Ipomea hederaceae", 6],
  ["CCN1c2nccnc2C(O)=C(c2ccc(Cl)cc2C(F)(F)F)S1(=O)=O", "Ipomea hederaceae", 9]
]}
